meta.source: paper PMC8622415

Assay: Stability of CGA acyl analogues in methanol solution (HPLC)
Assay type: physicochemical
Details: 25 °C, day 4
Method: The stability of the synthesized acyl analogues was measured in methanol, since the acetyl analogue of CGA was highly unstable in methanol solution. First, 10 mg of the sample was dissolved in 2 mL of methanol and stored at 25 °C. Then, purity was analyzed using HPLC (Shimadzu LC solution, Kyoto, Japan) for 28 days. […]
READOUT KIND: Amount remaining in methanol (HPLC area) (%)

>  <COMPOUND>
O=C(/C=C/c1ccc(OC(=O)C2CCCCC2)c(OC(=O)C2CCCCC2)c1)OC1CCCCC1 [Compound 13d]

>  <UNIT ABBREVIATION>
%

>  <REPORTED RESULT>
93.5713

$$$$
>  <COMPOUND>
CCCCCC(=O)Oc1ccc(/C=C/C(=O)OC2CCCCC2)cc1OC(=O)CCCCC [Compound 13b]

>  <UNIT ABBREVIATION>
%

>  <REPORTED RESULT>
83.9188

$$$$
>  <COMPOUND>
CCCC(=O)Oc1ccc(/C=C/C(=O)OC2CCCCC2)cc1OC(=O)CCC [Compound 13a]

>  <UNIT ABBREVIATION>
%

>  <REPORTED RESULT>
75.4921

$$$$

1. CC(=O)Oc1ccc(/C=C/C(=O)OC2CCCCC2)cc1OC(C)=O [Compound 18]
2. CC(C)(C)C(=O)Oc1ccc(/C=C/C(=O)OC2CCCCC2)cc1OC(=O)C(C)(C)C [Compound 13c]
Prompt line: Pick one, 1 or 2 : lowest reported Amount remaining in methanol (HPLC area). Your answer should be the label of the entry you select.
Response line: 1
(1: 33.7154%, 2: 98.8061%)
